system: NCI-H226 lung; assay: NCI tumour cell line growth inhibition, 48 h

{"Structure As Smiles": "CC(C)=CCC/C(C)=C/CC/C(C)=C/CSC[C@H](NC(=O)CCCCCN1CCN(C)CC1)C(=O)NC1CCCCCC1", "GI50": "11.6 µM"}
{"Structure As Smiles": "CC(C)(C)CC(C)(C)c1ccc(OCCO)cc1", "GI50": "2.44 µg/mL"}
{"Structure As Smiles": "O=C(NCc1cn(Cc2cccc(Oc3ccccc3)c2)nn1)c1cccnc1Nc1ccc(F)cc1", "GI50": "38.6 µM"}
{"Structure As Smiles": "CC1(C)N=C(N)N=C(N)N1c1ccc(OCCCNC(=O)Nc2ccc(S(=O)(=O)F)cc2)c(Cl)c1", "GI50": "11.2 µM"}

====

Catalogue of TGI readings, one per entry.
system: DMS 114 small cell lung; test: NCI tumour cell line growth inhibition, 48 h

{"Compound": "NC1=C(O)c2cccc3cccc(c23)C1=O", "TGI": "> 100 µM"}
{"Compound": "Cc1ccc(S(=O)c2ccccc2[N+](=O)[O-])cc1 (configuration not stated)", "TGI": "> 100 µM"}
{"Compound": "C/C(CN1C(=O)c2ccccc2C1=O)=N\\NS(=O)(=O)c1ccc2ccccc2c1", "TGI": "> 100 µM"}
{"Compound": "O=C(/C=C/c1ccccc1)NC1C=Nc2ccc([N+](=O)[O-])cc2NC1=O (configuration not stated)", "TGI": "> 100 µM"}
{"Compound": "O=S1OC(c2ccccc2)(c2ccccc2)C(c2ccccc2)(c2ccccc2)O1", "TGI": "> 100 µM"}
{"Compound": "COc1ccc2c(c1)[C@@H](NC(C)=O)CCc1cc(OC)c(OC)c(OC)c1-2", "TGI": "0.366 µM"}
{"Compound": "COc1nc(NC2OC(COC(C)=O)C(OC(C)=O)C(OC(C)=O)C2OC(C)=O)c(N=CC=Nc2c(NC3OC(COC(C)=O)C(OC(C)=O)C(OC(C)=O)C3OC(C)=O)nc(OC)[nH]c2=O)c(=O)[nH]1 (configuration not stated)", "TGI": "> 100 µM"}
{"Compound": "CCN(CC)C(=O)CCn1ccc(=O)[nH]c1=O", "TGI": "> 100 µM"}
{"Compound": "C[C@@H]1C(=O)CC2C(C)(C)CCC[C@]2(C)[C@@]12CC[C@]1(C=COC1)O2 (some centres not stated)", "TGI": "> 100 µM"}
{"Compound": "N/N=c1/nc2n(c3ncccc13)C=CNN2", "TGI": "> 100 µM"}
{"Compound": "CC(=O)OC(C)(C)C1CC[C@]2(C)/C=C/C(C)C[C@@H](O)/C=C(\\C)CC(O)C12 (some centres not stated)", "TGI": "> 100 µM"}
{"Compound": "NC(N)NCCCc1cn2c(n1)C1CCCN1C(=O)C2Cc1ccccc1 (configuration not stated)", "TGI": "> 100 µM"}
{"Compound": "CC(=O)CCC#Cc1ccccc1C(=O)C(C)=[N+]=[N-]", "TGI": "42 µM"}
{"Compound": "O=C1C2C3CC4C5C3C1C5C1(SCCS1)C42 (configuration not stated)", "TGI": "> 100 µM"}
{"Compound": "CN1C2CCC1/C(=C/c1cccc3c1OCO3)C(=O)/C2=C\\c1cccc2c1OCO2", "TGI": "> 100 µM"}
{"Compound": "CC(=O)OCC1C(=O)OCC1C(=O)N1Cc2cc3ccccc3nc2C1 (configuration not stated)", "TGI": "29.8 µM"}
{"Compound": "COc1ccc(-c2cc(N3CCN(c4ccc(Cl)cc4)CC3)c(C#N)c(=O)o2)cc1", "TGI": "25.6 µM"}

====

system: SNB-19 CNS; assay: NCI tumour cell line growth inhibition, 48 h
Recorded Endpoint: TGI

{"Compound": "Cn1cc(-c2ccc3nc(-c4ccc(CC(=O)Nc5cc(C(C)(C)C)no5)cc4)cnc3c2)cn1", "Endpoint Result": "> 3 µM"}
{"Compound": "COc1cc2c(cc1OS(C)(=O)=O)N=C[C@@H]1CCCN1C2=O", "Endpoint Result": "> 100 µM"}
{"Compound": "COc1ccc(N2C(=O)c3cc([N+](=O)[O-])cnc3S2(=O)=O)cc1", "Endpoint Result": "> 100 µM"}
{"Compound": "CN(C)c1cccc(-c2cc(=S)c3cc4c(cc3[nH]2)OCO4)c1", "Endpoint Result": "> 100 µM"}
{"Compound": "Clc1ccc(Cc2nc3ccccc3o2)cc1", "Endpoint Result": "> 100 µM"}
{"Compound": "Cn1cc(C2=C(c3ccsc3)C(=O)NC2=O)c2ccccc21", "Endpoint Result": "> 25 µM"}
{"Compound": "C=CC(=O)NCCC(=O)OCn1cc(F)c(=O)[nH]c1=O", "Endpoint Result": "> 100 µM"}
{"Compound": "O=c1[nH]c2ccccc2n1C1CCNCC1", "Endpoint Result": "> 100 µM"}
{"Compound": "O=C1C2C3C4C1C1C2[C@H](OCc2ccccc2)C3C1[C@H]4OCc1ccccc1 (stereo partly specified)", "Endpoint Result": "> 100 µM"}
{"Compound": "CCOc1ccc(/C=C2\\N=C(c3ccccc3)OC2=O)cc1", "Endpoint Result": "> 100 µM"}
{"Compound": "COC(=O)C(Cc1ccccc1)NC(=O)CSc1nnc(COc2ccc(Cl)cc2)n1-c1ccccc1 (stereo unspecified)", "Endpoint Result": "> 100 µM"}

====

system: OVCAR-3 ovarian; experiment: NCI tumour cell line growth inhibition, 48 h
Catalogue of TGI readings, one per entry.

{"Molecule": "Cc1ccc(S(=O)c2ccccc2[N+](=O)[O-])cc1 (stereo unspecified)", "TGI": "> 100 µM"}
{"Molecule": "COc1ccc(C2=NN(C(N)=S)C(c3ccc4c(c3)OCO4)C2)cc1 (stereo unspecified)", "TGI": "4.72 µM"}
{"Molecule": "O=C1c2ccccc2-c2nnc3c(c21)Cc1ccccc1C3", "TGI": "> 10 µM"}
{"Molecule": "O=C(CCc1n[nH]c(=S)o1)Nc1cc(Cl)ccc1Cl", "TGI": "> 100 µM"}
{"Molecule": "O=C1C2C3C4C1C1C2[C@H](OCc2ccccc2)C3C1[C@H]4OCc1ccccc1 (stereo partly specified)", "TGI": "> 100 µM"}
{"Molecule": "NC(N)NCCCc1cn2c(n1)C1CCCN1C(=O)C2Cc1ccccc1 (stereo unspecified)", "TGI": "> 100 µM"}
{"Molecule": "Cc1nc2ccc(F)cc2c2c1CCS2", "TGI": "> 100 µM"}
{"Molecule": "COc1ccc(N2C(=O)c3cc([N+](=O)[O-])cnc3S2(=O)=O)cc1", "TGI": "> 100 µM"}
{"Molecule": "N/N=c1/nc2n(c3ncccc13)C=CNN2", "TGI": "> 100 µM"}
{"Molecule": "O=C(CNc1ccccc1[N+](=O)[O-])Nn1cnc2ccc(S(=O)(=O)Nc3ccccc3[N+](=O)[O-])cc2c1=O", "TGI": "> 100 µM"}
{"Molecule": "COc1cc2cc(NCc3cccc(Cl)c3)nc(C)c2cc1OC", "TGI": "16.3 µM"}

====

test system: SK-MEL-5 melanoma; assay: NCI tumour cell line growth inhibition, 48 h
Catalogue of TGI readings, one per entry.

{"Molecule": "Cc1nnc2n1N=C(c1cc(F)c(Cl)cc1Cl)/C(=C/c1ccc(-c3ccc([N+](=O)[O-])cc3)o1)S2", "TGI": "> 100 µM"}
{"Molecule": "Clc1ccc(Cc2nc3ccccc3o2)cc1", "TGI": "> 100 µM"}
{"Molecule": "CC(=O)c1ccc(Br)cc1NC1=CC(=O)c2ncccc2C1=O", "TGI": "1.3 µM"}
{"Molecule": "Cc1cn2cc(-c3cccs3)nc2s1", "TGI": "> 100 µM"}
{"Molecule": "C=CC1(C)CCC2C(=CCC3C2(C)CC(O)C(O)C3(C)COC2OC(CO)C(O)C(O)C2O)C1 (stereo not given)", "TGI": "> 100 µM"}
{"Molecule": "CCCCNC(=O)OCCN=c1c2ccccc2ccc2ccccc12", "TGI": "> 100 µM"}
{"Molecule": "C=C1CC[C@](C)(O)[C@@]2(C)CC[C@H]3C(=C(C)C)C(=O)C[C@]3(C)C[C@H]12", "TGI": "> 50 µM"}
{"Molecule": "O=C1c2cc(Br)ccc2-c2ccc3c4ccc5c6c(ccc(c7ccc1c2c73)c64)C(=O)c1cc(Br)ccc1-5", "TGI": "> 100 µM"}
{"Molecule": "CC1=C(CCCOC(=O)[C@H](N)CC(C)C)C2=C(C)C3(CC3)[C@@](C)(O)C(=O)C2=C1", "TGI": "2.83 µM"}
{"Molecule": "CCCCn1c(=O)[nH]c(N)c([C@@H]2c3c([nH]c(=O)n(CCCC)c3=O)Oc3ccc4ccccc4c32)c1=O", "TGI": "10.7 µM"}
